- Run Description: viability loss with induced miR-34 in A549 – imaging, A549 dox-inducible miR-34, nuclei and caspase counts, primary screen (AID 1347080); note: test concentration not given here
- Applied Conditions: A549 miR-34 inducible, Hoechst nuclei count, 48 h; hits give low values; cell number ratio, induced over uninduced
Below is a list of entries, each paired with its recorded fold change value.
Returns: the value as a bare number; no unit string appended.

Below: 5 compounds and their reported fold change.
# Compound, fold change
rows = [
    ("O=C(O)c1ccc(B(O)O)cc1", 0.887),
    ("CC(=O)OC1C[C@@H]2CC[C@@H]3[C@@H](CC[C@]4(C)C(OC(C)=O)C([N+]5(C)CCCCC5)C[C@@H]34)[C@@]2(C)CC1N1CCCCC1 (stereo partly specified)", 0.894),
    ("NC(C(=O)NC1C(=O)N2C(C(=O)O)=C(CSc3cn[nH]n3)CSC12)c1ccc(O)cc1 (stereo unspecified) (tested in a mixture with another compound)", 0.899),
    ("COc1ccc(CN(C)C(=O)Nc2nc(C)n(C)n2)c2cccnc12", 0.889),
    ("CC(=O)Nc1nc2c(s1)C(=O)NCCC2", 0.907),
]

Now take the following compound into account.
Provide measured fold change value, entry: C[C@@H]1C[C@H]2[C@@H]3C[C@H](F)C4=CC(=O)C=C[C@]4(C)[C@@]3(Cl)[C@@H](O)C[C@]2(C)[C@H]1C(=O)COC(=O)C(C)(C)C
0.917

----------
- Run Description: MELAS cybrid and Rieske KO viability enhancers – cell-based, MELAS cybrids, Rieske KO mouse fibroblasts, CellTiter-Glo, primary screen (AID 1508586);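 note: test concentration not given here; z relative to plate mean and SD of compound and empty wells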
- Applied Conditions: MELAS cybrid survival, low glucose, CellTiter-Glo 48 h; hits give high values
Label Yes when z-score is at or above -0.03; anything below gets No.

# Compound, Label
rows = [
    ("O=C(O)c1ccccc1C(=O)O", "No"),
]

Is z-score at least -0.03? Consider Cn1cc(/C=C/C(=O)N2CCc3[nH]nc(-c4ccccc4F)c3C2)cn1
No

Form field: z-score at least -0.03? Entry: CCc1cccc2c3c([nH]c12)[C@](CC)(CC(=O)O)OCC3
No

Please indicate if the recorded z-score for C[C@]12CC[C@@H]3c4ccc(OS(=O)(=O)O)cc4CC[C@H]3[C@@H]1CCC2=O meets or exceeds -0.03.
No

Does the compound CC(=O)OC1C[C@@H]2CC[C@@H]3[C@@H](CC[C@]4(C)C(OC(C)=O)C([N+]5(C)CCCCC5)C[C@@H]34)[C@@]2(C)CC1N1CCCCC1 (some centres not stated) have recorded z-score that is -0.03 or more?
No

Please indicate if the recorded z-score for CCn1c2ccccc2c2cc(CNC)ccc21 meets or exceeds -0.03.
Yes

Check this compound for z-score at or above -0.03: c1ccc(CNc2ncnc3nc[nH]c23)cc1
Yes

In plain terms: is recorded z-score at least -0.03 for CN(Cc1nc(-c2ccccc2)cs1)C1CCc2c(c(C(=O)N3CCSCC3)nn2C)C1 (configuration not stated) ?
Yes

Form field: z-score at least -0.03? Entry: Cc1cc(C(=O)NNCc2ccccc2)no1
Yes

Quick check, z-score >= -0.03? Cc1cccc2c(C(=O)N3C4CCCCC3CCC4)cc(-c3cncnc3)nc12
Yes

Given the entry Cc1cnc(NC(=O)Nc2cc(Br)c(C)cc2OCC2CNCCO2)cn1 (configuration not stated) , answer whether its z-score meets or surpasses -0.03.
Yes

Determine whether measured z-score meets or exceeds -0.03 for CC(=NNC(=S)N1CCC1)c1ccccn1
Yes
